Data provenance is ChEMBL document CHEMBL5113395.

This section presents molecules with their documented remaining at 24 h values.
# assay_details: Chemical stability of compound in PBS at pH 7.4 incubated for 24 hrs at 40 degreeC by HPLC/UV/DAD analysis
# Assay type: physicochemical
# condition: read-out: Stability

molecule | unit_label | remaining at 24 h
O=C(NO)c1ccc(CNC(=O)N2CCC(N3C(=O)[C@H](c4ccccc4)[C@H]3c3ccccc3)CC2)cc1 (racemic) | % | 100
O=C(NO)c1ccc(CNC(=O)N2CCC(N3CC(c4ccccc4)(c4ccccc4)C3=O)CC2)cc1 | % | 94

* * *

# measured_on: Protein deacetylase HDAC6 (Homo sapiens, UniProt Q9UBN7)
# Sequence (Q9UBN7 whole entry): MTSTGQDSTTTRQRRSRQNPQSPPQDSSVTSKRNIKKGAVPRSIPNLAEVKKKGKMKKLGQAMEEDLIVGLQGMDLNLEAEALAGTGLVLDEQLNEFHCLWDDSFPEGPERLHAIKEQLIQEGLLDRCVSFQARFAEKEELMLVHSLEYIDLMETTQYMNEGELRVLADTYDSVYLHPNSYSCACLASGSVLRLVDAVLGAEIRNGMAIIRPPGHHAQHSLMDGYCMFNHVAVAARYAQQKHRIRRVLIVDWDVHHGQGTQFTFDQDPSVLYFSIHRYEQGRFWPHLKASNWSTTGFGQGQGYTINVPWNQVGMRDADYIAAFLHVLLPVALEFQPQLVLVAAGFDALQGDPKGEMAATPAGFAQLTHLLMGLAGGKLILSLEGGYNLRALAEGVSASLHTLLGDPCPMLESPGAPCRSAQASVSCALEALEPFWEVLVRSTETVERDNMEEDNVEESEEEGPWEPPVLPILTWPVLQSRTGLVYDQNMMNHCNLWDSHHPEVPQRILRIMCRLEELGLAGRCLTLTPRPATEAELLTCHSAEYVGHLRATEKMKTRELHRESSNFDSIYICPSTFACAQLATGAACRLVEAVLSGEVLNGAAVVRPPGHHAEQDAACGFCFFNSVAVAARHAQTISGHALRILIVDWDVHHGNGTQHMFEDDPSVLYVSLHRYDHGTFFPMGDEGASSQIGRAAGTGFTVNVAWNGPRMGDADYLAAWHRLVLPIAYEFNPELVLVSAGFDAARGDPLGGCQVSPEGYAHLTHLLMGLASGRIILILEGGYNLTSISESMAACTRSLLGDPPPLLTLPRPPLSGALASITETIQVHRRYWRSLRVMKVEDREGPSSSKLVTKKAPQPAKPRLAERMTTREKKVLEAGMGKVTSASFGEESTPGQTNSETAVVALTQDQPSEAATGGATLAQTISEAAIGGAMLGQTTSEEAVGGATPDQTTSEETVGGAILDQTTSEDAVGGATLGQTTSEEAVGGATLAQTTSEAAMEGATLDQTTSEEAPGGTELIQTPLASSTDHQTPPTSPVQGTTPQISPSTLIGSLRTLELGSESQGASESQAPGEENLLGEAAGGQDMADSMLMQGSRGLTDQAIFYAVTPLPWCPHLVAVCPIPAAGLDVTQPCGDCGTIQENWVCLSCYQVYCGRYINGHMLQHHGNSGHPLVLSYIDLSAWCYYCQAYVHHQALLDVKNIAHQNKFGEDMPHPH
# assay_details: Inhibition of recombinant human full length N-terminal GST-tagged HDAC6 expressed in Sf9 cells using ZMAL (Z-(Ac)Lys-AMC as substrate measured after 90 mins by fluorescence plate reader analysis
This section presents molecules with their documented IC50 values.
observation_type: IC50

molecule | observation_type | result_value
O=C(NO)c1ccc(COC(=O)N2CCC(N3CC(c4ccccc4)(c4ccccc4)C3=O)CC2)cc1 | IC50 | 18.5 nM
O=C(NO)c1ccc(/C=C/C(=O)N2CCC(N3C(=O)[C@H](c4ccccc4)[C@H]3c3ccccc3)CC2)cc1 (racemic) | IC50 | 130 nM
O=C(NO)c1ccc(CC(=O)N2CCC(N3C(=O)[C@H](c4ccccc4)[C@H]3c3ccccc3)CC2)cc1 (racemic) | IC50 | 121 nM
O=C(/C=C/c1ccc(C(=O)N2CCC(N3C(=O)[C@H](c4ccccc4)[C@H]3c3ccccc3)CC2)cc1)NO (racemic) | IC50 | 168 nM
O=C(NO)c1ccc(CNC(=O)N2CCC(N3C(=O)[C@H](c4ccccc4)[C@H]3c3ccccc3)CC2)cc1 (racemic) | IC50 | 21 nM
O=C(NO)c1ccc(NC(=O)N2CCC(N3C(=O)[C@H](c4ccccc4)[C@H]3c3ccccc3)CC2)cc1 (racemic) | IC50 | 203 nM
